System: HCT-116 colon
test: NCI-60 one-dose screen, 48 h
reported conditions: 10 µM unless noted
About 83,000 compounds went through this panel and 20% of them were active in at least one assay; those are over-represented in the sample as a whole. Calls of active or inactive are those of the source. How the source made its calls: active means growth percent below 10; inactive means the rest.
Outcome codes: 1.0 (active), 0.0 (inactive)

NC(=O)c1c(NC(=O)c2cccs2)sc2c1CCC(=O)C2 ... 1.0
C=C(CNCCO)[C@@H]1CC[C@]2(CO)CC[C@]3(C)[C@H](CC[C@@H]4[C@@]5(C)CCC(N)C(C)(C)[C@@H]5CC[C@]43C)[C@@H]12 (some centres undefined) ... 1.0
CCCn1nc(C(=O)N(C)Cc2ccccc2)c2c1CCC(N1CCc3ccccc31)C2 (centres undefined) ... 0.0
O=C(c1c[nH]c2ccccc12)c1n[nH]c(=S)n1-c1cccc(Br)c1 ... 0.0

====

Each item that follows carries a reported growth.
Test system: LOX IMVI melanoma
test: NCI-60 one-dose screen, 48 h (100 = growth as untreated, 0 = no growth, -100 = all killed)
reported conditions: 10 µM unless noted
The panel holds about 83,000 compounds, 20% with a hit somewhere; the sample as a whole holds those more often.
recorded endpoint: growth (%)

Cc1ccc(CNc2ccc3nc(CCC(C)C)[nH]c3c2)cc1 ... 94.5
O=C(/C=C/c1ccccc1)c1ccc(Nc2nc(Nc3ccc(F)cc3)nc(Nc3ccc(Cl)cc3)n2)cc1 ... 85.1
Cc1cccc2c1C[C@@]1(C2=O)C(c2ccc(C(C)(C)C)cc2)=NOS1=O (stereo partly specified) ... 76.6
COc1ccc(/C=C/C(c2cc(OC)c(OC)c(OC)c2)n2cncn2)cc1 (stereo unspecified) ... 50
C=C(c1ccc(OC)c(/C=C/C(=O)c2ccc3c(c2)OCO3)c1)c1cc(OC)c(OC)c(OC)c1 ... -51.1
CN(C)CCCC1(c2ccc(F)cc2)OCc2cc(-c3ccc4cc[nH]c4c3)ccc21 (stereo unspecified) ... -83.4
COc1cc(OC)c2sc(-c3ccc(-n4cncc4-c4cc(OC)c(OC)c(OC)c4)cc3)nc2c1 ... 57.7
Cc1nc2ccccc2c(/C=C/c2ccccc2)c1C(=O)/C=C/c1ccccc1 ... -64.1
CCOC(=O)CC1CSC(Nc2ccccc2)=N1 (stereo unspecified) ... 97.3
O=C(CCSc1nnc2n(Cc3ccccc3)c(=O)c3c4c(sc3n12)CCCC4)N1CCN(c2ccccc2)CC1 ... 100
C/C(Cc1ccc(Cl)cc1)=C(\c1ccc(OCCCN(C)C)cc1)c1ccc(OC(=O)Cc2ccccc2)cc1 ... 99.2
Cc1ccc(/C=C(\C#N)n2nnc3cc(F)c(F)cc32)cc1 ... -17.6
O=C(CSc1nc(-c2ccccc2)cc(=O)[nH]1)Nc1nc(-c2ccccc2)cs1 ... 96.6
CCN(CC)CCN1C(=O)c2c(c(C)c3c(oc4ccc(OC)cc43)c2C)C1=O ... 93.3
NC(=O)c1c(NC(=O)c2cccc(C(F)(F)F)c2)sc2c1CCC(=O)C2 ... 5.08
Cc1ccc(C(=O)Nc2cccc(C#Cc3cccc4[nH]nc(N)c34)c2)cc1C(F)(F)F ... 25.4
CCC1S/C(=N\N=C(\C)c2cc3cc(Cl)ccc3o2)N(c2ccccc2)C1=O (stereo unspecified) ... 85.4
CC1=C(CCC(C)NCc2ccc(OCCCN3CCCCC3)cc2)C(C)(C)CCC1 (stereo unspecified) ... -88.7
CC(=O)c1sc2sc(C(C)=O)c(C)c2c1C ... 95.6
COc1ccc(/C=C2\CN(C(=O)C(Cl)Cl)C/C(=C\c3ccc(OC)cc3)C2=O)cc1 ... -77.8
CCN1C(=O)N(CC)C2C1NN=c1s/c(=C3\C(=O)N(CCC(C)C)c4ccccc43)c(=O)n12 (stereo unspecified) ... 19.2

====

System: ACHN renal
test: NCI-60 one-dose screen, 48 h (100 = growth as untreated, 0 = no growth, -100 = all killed)
reported conditions: 10 µM unless noted
The panel holds about 83,000 compounds, 20% with a hit somewhere; the sample as a whole holds those more often. Activity calls are given as the source filed them. The calls were made as follows: active = growth percent below 10; inactive = the rest.
recorded endpoint: growth

CCCCNC(=O)c1cc([N+](=O)[O-])cc(C2CCCCC2)c1O ... 61.5% (inactive)
CC1(C)NCCC[C@]2(C)[C@H]3CC[C@H]4[C@H]5[C@H](C(=O)/C=C/c6cccnc6)CCC[C@]5(CO)CC[C@@]4(C)[C@]3(C)CC[C@@H]12 ... 80.4% (inactive)
Cc1ccc(C2CC(c3nc(-c4ccc(Cl)cc4)oc3C)=NN2C(=O)c2ccncc2)cc1 (stereo not drawn) ... 87.3% (inactive)
COc1ccc(N2CCN(C(=O)c3sc4nc(C)c(Br)c(C)c4c3N)CC2)cc1 ... 92.6% (inactive)
CN1CCN(C(=S)SCCCCOc2cc(=O)oc3ccccc23)CC1 ... 92.9% (inactive)
Oc1c(CN2CCC(N3CCCCC3)CC2)cc(Cc2cc(CN3CCC(N4CCCCC4)CC3)c(O)c3ncccc23)c2cccnc12 ... 13.8% (inactive)
Cc1ccc(-c2csc(NC(=O)c3ccccc3CN3C(=O)c4ccccc4C3=O)n2)cc1 ... 108% (inactive)
CC(C)(C)n1cc(-c2ccnc(NCCCNS(=O)(=O)c3cccc4ccccc34)c2)c(-c2cccc(F)c2)n1 ... 91.5% (inactive)
COc1ccc(C2=CN3CC=CC3CC2=O)cc1 (stereo not drawn) ... 102% (inactive)
NS(=O)(=O)c1ccc(-c2cc(-c3nnc(SCC(=O)Nc4ccc(C(=O)/C=C/c5ccc(Cl)cc5)cc4)n3-c3ccccc3)c3ccccc3n2)cc1 ... 106% (inactive)
CCN1C(=O)N(CC)C2C1NN=c1s/c(=C3\C(=O)N(CCC(C)C)c4ccccc43)c(=O)n12 (stereo not drawn) ... 30.7% (inactive)
Cn1cc(-c2csc(-c3c[nH]c4ccc(F)cc34)n2)c2ccnc(Cl)c21 ... 51% (inactive)
CC(=O)c1sc2sc(C(C)=O)c(C)c2c1C ... 98.9% (inactive)

====

Tested on: SK-MEL-28 melanoma
test: NCI-60 one-dose screen, 48 h
reported conditions: 10 µM unless noted
This is part of a sample that, as a whole, favours compounds with a hit. Of some 83,000 tested, about 20% had one in any assay. Activity calls are given as the source filed them. Rule for the calls: active = growth percent below 10; inactive = the rest.
Outcome codes: 1.0 = active, 0.0 = inactive

S=C(c1ccc2c(c1)OCO2)N1CCN(c2cccc(Cl)c2)CC1 ... 0.0
Cc1nn(-c2cc(NC3CCC(O)CC3)c3c(=O)[nH]c(CCC(F)(F)F)cc3c2)c2c1C(=O)CC(C)(C)C2 (stereo not drawn) ... 0.0
N#CSc1c[nH]c2cccc(/C=C/C(=O)/C=C(O)/C=C/c3cccc4[nH]cc(SC#N)c34)c12 ... 1.0
CCN(CC)CCN1C(=O)c2c(c(C)c3c(oc4ccc(OC)cc43)c2C)C1=O ... 0.0
CCCn1nc(C(=O)N(C)Cc2ccccc2)c2c1CCC(N1CCc3ccccc31)C2 (stereo not drawn) ... 0.0
COc1ccc(/C(C)=C(\c2ccc(Cl)cc2)c2ccc(OCCN3CCCCC3)cc2)cc1 ... 0.0
O=C1c2ccccc2C(=O)C1c1ccc(Br)cc1 ... 0.0
O=S(=O)(NCCNc1nccc(-c2c(-c3cccc(O)c3)nc3occn23)n1)c1ccc(Br)cc1 ... 0.0
COc1ccc(-c2n[nH]c(=O)c3nc(NC(=S)Nc4ccc(Oc5ccccc5)cc4)sc23)cc1 ... 0.0
N#Cc1cncc(-c2ccc3ncnc(Nc4cccc(Cl)c4)c3c2)c1 ... 0.0
O=C(N/N=C\c1ccccc1S(=O)(=O)O)N/N=C/c1ccccc1S(=O)(=O)O ... 0.0
COc1ccc2c(c1)c(-c1nc(-c3c[nH]c4ncccc34)cs1)cn2CCCN1CCOCC1 ... 1.0
Nc1ccc(-c2csc(-n3[nH]c(=O)ccc3=O)n2)cc1 ... 0.0

====

Each item that follows carries a reported growth.
System: TK-10 renal
test: NCI-60 one-dose screen, 48 h (100 = growth as untreated, 0 = no growth, -100 = all killed)
reported conditions: 10 µM unless noted
This is part of a sample that, as a whole, favours compounds with a hit. Of some 83,000 tested, about 20% had one in any assay.
recorded endpoint: growth (%)

CCN(CC)Cc1cc(Nc2ccnc3cc(Cl)ccc23)ccc1O ... 108
C=C(C)[C@@H]1CCC[C@]2(C(=O)O)CC[C@]3(C)[C@@H](CC[C@@H]4[C@@]5(C)C/C(=C/c6ccncc6)C(=O)C(C)(C)[C@@H]5CC[C@]43C)[C@@H]12 ... 52.2
COc1ccc2cc(-c3ccnc4c(N=Nc5ccc(Cl)cc5)c(N)nn34)ccc2c1 ... 102
CC(=C(c1ccc(OCCN2CCCCC2)cc1)c1ccc(OCCN2CCCCC2)cc1)c1ccc(Cl)cc1 ... -88.5
O=C(Nc1ncc(Cc2cc(C(F)(F)F)ccc2Cl)s1)c1cccs1 ... 71.7
CN(Cc1ccccc1)c1nc(Cl)c(C2CC(c3ccccc3)=NN2c2ccccc2)s1 (centres undefined) ... 115
Cc1nn(-c2ccccc2)c(N)c1N=C1NC(=O)/C(=C/c2ccc(Br)cc2)S1 ... 106
O=S(=O)(NCCCNc1nccc(-c2c(-c3cccc(F)c3)nc3occn23)n1)c1ccc(F)cc1 ... 56.7
CC1(C)CC(=O)c2c(nn(-c3ccc(Br)cc3)c2-c2cn(-c3ccccc3)nc2-c2cccnc2)C1 ... 140

Data origin: PubChem BioAssay (NCI)
